# assay-target: EphA2 endogenously expressed on PC3 prostate cancer cells (UniProt P29317 24-976, limits assumed)
# Sequence (P29317 24-976 limits assumed): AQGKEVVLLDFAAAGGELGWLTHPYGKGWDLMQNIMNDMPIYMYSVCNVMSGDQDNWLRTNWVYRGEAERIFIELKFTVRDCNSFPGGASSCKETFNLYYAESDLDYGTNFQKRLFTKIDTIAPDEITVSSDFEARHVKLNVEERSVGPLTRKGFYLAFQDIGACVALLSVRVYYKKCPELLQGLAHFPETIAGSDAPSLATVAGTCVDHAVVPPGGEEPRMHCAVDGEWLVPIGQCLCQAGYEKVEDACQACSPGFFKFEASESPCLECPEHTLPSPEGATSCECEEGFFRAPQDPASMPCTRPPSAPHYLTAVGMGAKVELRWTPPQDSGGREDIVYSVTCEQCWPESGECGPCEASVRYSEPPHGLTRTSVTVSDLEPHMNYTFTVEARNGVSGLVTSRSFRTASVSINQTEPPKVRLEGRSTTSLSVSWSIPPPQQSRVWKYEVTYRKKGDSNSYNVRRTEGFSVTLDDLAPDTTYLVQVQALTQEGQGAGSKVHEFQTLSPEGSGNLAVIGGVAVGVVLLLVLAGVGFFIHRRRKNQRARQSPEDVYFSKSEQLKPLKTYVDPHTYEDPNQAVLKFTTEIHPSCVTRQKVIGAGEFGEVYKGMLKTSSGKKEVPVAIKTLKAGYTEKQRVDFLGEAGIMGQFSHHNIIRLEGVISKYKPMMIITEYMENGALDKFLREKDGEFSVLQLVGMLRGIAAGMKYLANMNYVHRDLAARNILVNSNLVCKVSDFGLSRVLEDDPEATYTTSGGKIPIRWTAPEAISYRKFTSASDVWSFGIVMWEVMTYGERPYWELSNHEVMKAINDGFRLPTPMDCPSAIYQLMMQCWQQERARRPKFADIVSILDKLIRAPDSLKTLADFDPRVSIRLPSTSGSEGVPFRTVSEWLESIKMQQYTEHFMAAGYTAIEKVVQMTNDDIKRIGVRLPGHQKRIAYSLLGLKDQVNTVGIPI
# experiment-notes: cell-based or functional assay
Where no end group is shown, it is not given here. [ ]: non-standard residue; d: D form. βAla = NCCC(=O)O
Below is a list of entries, each paired with its recorded Emax PY588 value.

# example entries with known answers
{"binder": "[βAla]WLAYPDSVPYRPKC (also: homodimer, disulfide at 15, other end not in the chain, C-terminally disulfide-linked homodimer made from monomer (19*); also called dimer (2); dimeric peptide (2)) [βA-WLA-YRPKC dimer (C-ter)]", "recorded-result": "0.39 normalized to ephrinA1-Fc"}
{"binder": "Click dimer (N-ter) (not fully specified; propargylglycine (Pra) at position 1, joined by a click linkage to KN3 of the other chain; C-terminal amide; azido-lysine (KN3) at position 1, joined by a click linkage to Pra of the other chain; C-terminal amide) peptide 1: KAWLAYPDSVPYRPK peptide 2: XGAWLAYPDSVPYRPK", "recorded-result": "0.71 normalized to ephrinA1-Fc"}
{"binder": "Lys-linked dimer (C-ter) (also: bond at chain A 15 to a chain's C-terminus) peptide 1: [βAla]WLAYPDSVPYRPKK peptide 2: [βAla]WLAYPDSVPYRPK", "recorded-result": "0.37 normalized to ephrinA1-Fc"}
{"binder": "CGAWLAYPDSVPYRPK (also: N-terminally disulfide-linked homodimer, disulfide at 1, other end not in the chain, also called dimer (5); dimeric peptide (5)) [CGA-WLA-YRPK dimer (N-ter)]", "recorded-result": "0.78 normalized to ephrinA1-Fc"}

Let's switch to this binder now.
Query (binder): CGAWLAYPDSVPYRPK-NH2 (also: homodimer: N-terminal Cys of two chains joined by disulfide) [CGA-WLA-YRPKam dimer (N-ter)] ; field requested: Emax PY588 0.8 normalized to ephrinA1-Fc

Data origin: patent US20230391826A1
